Every entry's value here was drawn from paper PMC3629139.

molecular target: photosystem II (PSII) D1 protein (Chlamydomonas reinhardtii, UniProt P07753, L200I); construct: full-length D1 from intronless psbA in the chloroplast, assembled in native PSII (with D2 and other subunits) in living algal cells; D1 mutants by ep-PCR of Ala153-Ala294 region and biolistic transformation of Del1; test: chlorophyll a fluorescence induction (OJIP), inhibition of 1-VJ (QA to QB electron transfer) in living algal cells; conditions: read-out: Atrazine / I50×10^-7 M / (±SE)
ASSAY READOUT: IC50 (nM)
Return type: number; implicit unit nM.

Task: Param item = CCNc1nc(Cl)nc(NC(C)C)n1 [Atrazine] ; retrieve measured IC50.
Result: 180
